- assay remarks: Human HepG2 cell viability assay in 384 well format
- Format: toxicity, cell-based
- Parameters: dose 125 nL, time 70.5 hour; concentration not given beside the values
- condition parameters: HepG2 cells, read-out: Inhibition
observable: cytotoxicity at 70.5 h (%)
Expressed in %, but write only the number.

// below: answered compounds
compound=COc1ccccc1OCC(=O)NS(=O)(=O)c1ccccc1F measurement_units=% reported=-0.501
compound=O=C(Cc1ccc2c(c1)CCO2)N1CCN(c2cnccn2)CC1 measurement_units=% reported=23.2
compound=CCn1c(C2CCN(C(=O)c3cc(CC(C)C)no3)CC2)nn(C)c1=O measurement_units=% reported=3.74
compound="CCc1nc(C)c(CC(=O)N2CCC3(CC2)OCCCC3OC)c(=O)[nH]1 (configuration not stated)" measurement_units=% reported=-6.31
compound=COCCN1CCCC12CCN(Cc1cncn1C)CC2 measurement_units=% reported=-1.01
compound="O=C(Cc1ccccc1)N1CCOC(c2nc(-c3ncccn3)no2)C1 (configuration not stated)" measurement_units=% reported=-4.21
compound="CC(CC(=O)NCCNS(C)(=O)=O)C1CCCCC1 (configuration not stated)" measurement_units=% reported=-13.2
compound=CCN(CC)c1ccc(-c2ccc(C)c(S(N)(=O)=O)c2)nn1 measurement_units=% reported=-8.22
compound="CCC1CN(C(=O)COc2ccc(C(=O)NC3CC3)cc2)CCO1 (configuration not stated)" measurement_units=% reported=-2.32
compound="O=C(c1n[nH]c(=O)c2ccccc12)N1CCCCC1c1ccn[nH]1 (configuration not stated)" measurement_units=% reported=-8.63

Now consider a different compound.
Reported cytotoxicity at 70.5 h, compound COCCNc1ccc(CC2CCCN(C3CCCC3)C2)nn1 (configuration not stated) : ____
-4.76

----------
- assay remarks: Human HepG2 cell viability assay in 384 well format
- Format: toxicity, cell-based
- Parameters: dose 125 nL, time 70.5 hour; concentration not given beside the values
- condition parameters: HepG2 cells, read-out: Inhibition
Measured cytotoxicity at 70.5 h, listed per entry for reference.

molecule="N#Cc1cccc(C(=O)NC2CCc3c(ccc(=O)n3CC3CC3)C2)c1 (configuration not stated)" reported=-2.82%
molecule=CCOc1ccccc1C(=O)Oc1cc(=O)n2cccc(C)c2n1 reported=-21.9%
molecule="O=C(N1CCOCC1)N1CCN(CC(O)c2ccc(F)cc2)CC1 (configuration not stated)" reported=3.33%

Request the reported cytotoxicity at 70.5 h associated with COc1c(CNCc2ccnc(N3CCCC3)c2)c(C)nn1C
-0.752%

What value of measured cytotoxicity at 70.5 h is listed for Cc1cc(C(=O)N2CCC3(CC2)COCCN(c2cccnc2)C3)[nH]n1 ?
-3.67%

----------
# cytotoxicity at 70.5 h listing for each entry below
- assay remarks: Human HepG2 cell viability assay in 384 well format
- Type: toxicity, cell-based
- Design: dose 125 nL, time 70.5 hour; concentration not given beside the values
- condition parameters: HepG2 cells, read-out: Inhibition

compound=CNC(=O)[C@@H]1CN(Cc2ccccc2)C[C@H]1C(=O)c1ccc(F)cc1 reported=-1.84%
compound=CCS(=O)(=O)N1CC[C@H]2OCC[C@@]2(C(=O)NC)C1 reported=-9.74%
compound="N#CCCN(C(=O)CN1CCCC1c1cccs1)c1ccccc1F (configuration not stated)" reported=1.76%
compound=CC(=O)c1c(O)ccnc1C(F)(F)F reported=-3.79%

Report cytotoxicity at 70.5 h for CNC(=O)c1nc(CC(=O)Nc2cccc(C(F)(F)F)c2)no1 please.
22.3%

What cytotoxicity at 70.5 h value was documented for this compound, CN(C)S(=O)(=O)N1CCCC(c2cccc(Cc3ccc(F)cc3)n2)C1 (configuration not stated) ?
3.53%

Please give the measured cytotoxicity at 70.5 h for this compound: CCC(=O)N(C)CC(=O)Nc1ccc(Br)cn1
2.06%
